Target: UniProt:P10415
Sequence (P10415 whole entry): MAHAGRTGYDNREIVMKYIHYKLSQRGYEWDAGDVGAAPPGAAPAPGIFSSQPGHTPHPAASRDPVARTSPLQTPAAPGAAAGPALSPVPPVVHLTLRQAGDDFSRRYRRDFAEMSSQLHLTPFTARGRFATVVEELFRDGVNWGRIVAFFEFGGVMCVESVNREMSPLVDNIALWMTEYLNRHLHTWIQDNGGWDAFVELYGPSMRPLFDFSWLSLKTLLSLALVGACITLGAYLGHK
Assay: TR-FRET binding assay, GST-Bcl-2 with F-Bak peptide probe
Details: TR-FRET; Bcl-XL Ki divided by Bcl-2 Ki
Procedure: Tb-anti-GST antibody was purchased from Invitrogen (Catalog No. PV4216). […] The samples were then mixed on a shaker for 1 minute and incubated for an additional 3 hours at room temperature. […] Fluorescence was measured on the ENVISION plate reader (Perkin Elmer) using a 340/35 nm excitation filter and 520/525 (F-Bak peptide) and 495/510 nm (Tb-labeled […] antibody) emission filters. […]
attributeMeasured: Binding selectivity ratio (Bcl-XL Ki/Bcl-2 Ki)
// keep it numeric: no unit symbol after the value

- compound: "CC1(C)CCC(CN2CCN(c3ccc(C(=O)NS(=O)(=O)c4cnc(OCC5CCc6nccn6C5)c(Cl)c4)c(Oc4cccc5[nH]ncc45)c3)CC2)=C(c2ccc(Cl)cc2)C1 (stereo not drawn)"
  testValue: 886.1

Now for a further compound.
UniProt:P10415 data for `CC1(C)CCC(CN2CCN(c3ccc(C(=O)NS(=O)(=O)c4cnc(OCC5(O)CCC(F)(F)CC5)c(Cl)c4)c(Oc4cccc5[nH]ncc45)c3)CC2)=C(c2ccc(Cl)cc2)C1` ; its Binding selectivity ratio (Bcl-XL Ki/Bcl-2 Ki): 92.7
